AC50 reference
Target: Prostaglandin G/H synthase 1 (Rattus norvegicus, UniProt Q63921)
Sequence (Q63921 whole entry): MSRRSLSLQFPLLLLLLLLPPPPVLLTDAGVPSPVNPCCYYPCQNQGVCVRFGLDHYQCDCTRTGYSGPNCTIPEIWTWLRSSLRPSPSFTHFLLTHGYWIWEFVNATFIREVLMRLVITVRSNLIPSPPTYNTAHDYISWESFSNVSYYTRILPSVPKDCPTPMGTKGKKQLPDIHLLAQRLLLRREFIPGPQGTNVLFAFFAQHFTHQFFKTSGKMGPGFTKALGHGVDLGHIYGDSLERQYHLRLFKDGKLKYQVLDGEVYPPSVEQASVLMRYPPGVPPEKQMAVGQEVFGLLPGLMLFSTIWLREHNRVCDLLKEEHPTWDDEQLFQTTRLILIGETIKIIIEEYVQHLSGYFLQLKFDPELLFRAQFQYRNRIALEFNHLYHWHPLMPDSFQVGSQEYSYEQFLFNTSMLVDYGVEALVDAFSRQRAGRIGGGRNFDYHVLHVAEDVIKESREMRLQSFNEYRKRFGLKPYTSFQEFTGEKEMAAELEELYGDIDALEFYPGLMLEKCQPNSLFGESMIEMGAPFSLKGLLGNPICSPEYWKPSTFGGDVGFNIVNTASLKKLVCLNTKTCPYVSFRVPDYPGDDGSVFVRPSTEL
Assay type: functional

// below: answered compounds
compound	parameterMeasured	observedMeasurement
C[C@H](N)[C@H](O)c1cccc(O)c1 [METARAMINOL]	AC50	> 10 µM
CC[C@@H](C(N)=O)N1CCCC1=O	AC50	> 30 µM
C[C@@H]1O[C@@H](O[C@@H]2C=C3CC[C@@H]4[C@H](CC[C@]5(C)[C@@H](c6ccc(=O)oc6)CC[C@]45O)[C@@]3(C)CC2)[C@H](O)[C@H](O)[C@H]1O [PROSCILLARIDIN]	AC50	13 µM
CCCC(C)C1(CC)C(=O)NC(=O)NC1=O (centres undefined) [PENTOBARBITAL]	AC50	> 10 µM
CCCC(=O)O[C@]1(C(=O)CO)CC[C@H]2[C@@H]3CCC4=CC(=O)CC[C@]4(C)[C@H]3[C@@H](O)C[C@@]21C [HYDROCORTISONE BUTYRATE]	AC50	> 10 µM
CC(=O)Nc1ccc(O)cc1 [ACETAMINOPHEN]	AC50	> 30 µM
COC(=O)[C@H]1[C@H]2C[C@@H]3c4[nH]c5cc(OC)ccc5c4CCN3C[C@H]2C[C@@H](OC(=O)/C=C/c2cc(OC)c(OC)c(OC)c2)[C@@H]1OC [RESCINNAMINE]	AC50	11.6 µM
CCOC(=O)[N-]c1cn(N2CCOCC2)n[o+]1 [MOLSIDOMINE]	AC50	24 µM

Can you share its AC50? I mean this compound: COc1ccc(C(=O)Nc2ccccc2CCC2CCCCN2C)cc1 (centres undefined) [ENCAINIDE]
> 30 µM

Can you share its AC50? I mean this compound: O=C(NCCNCC(O)COc1ccc(O)cc1)N1CCOCC1 (centres undefined) [XAMOTEROL]
> 30 µM

###

Biological target: Voltage-dependent L-type calcium channel subunit alpha-1C (Rattus norvegicus, UniProt P22002); also: assay procedure not described here
Sequence (P22002 whole entry): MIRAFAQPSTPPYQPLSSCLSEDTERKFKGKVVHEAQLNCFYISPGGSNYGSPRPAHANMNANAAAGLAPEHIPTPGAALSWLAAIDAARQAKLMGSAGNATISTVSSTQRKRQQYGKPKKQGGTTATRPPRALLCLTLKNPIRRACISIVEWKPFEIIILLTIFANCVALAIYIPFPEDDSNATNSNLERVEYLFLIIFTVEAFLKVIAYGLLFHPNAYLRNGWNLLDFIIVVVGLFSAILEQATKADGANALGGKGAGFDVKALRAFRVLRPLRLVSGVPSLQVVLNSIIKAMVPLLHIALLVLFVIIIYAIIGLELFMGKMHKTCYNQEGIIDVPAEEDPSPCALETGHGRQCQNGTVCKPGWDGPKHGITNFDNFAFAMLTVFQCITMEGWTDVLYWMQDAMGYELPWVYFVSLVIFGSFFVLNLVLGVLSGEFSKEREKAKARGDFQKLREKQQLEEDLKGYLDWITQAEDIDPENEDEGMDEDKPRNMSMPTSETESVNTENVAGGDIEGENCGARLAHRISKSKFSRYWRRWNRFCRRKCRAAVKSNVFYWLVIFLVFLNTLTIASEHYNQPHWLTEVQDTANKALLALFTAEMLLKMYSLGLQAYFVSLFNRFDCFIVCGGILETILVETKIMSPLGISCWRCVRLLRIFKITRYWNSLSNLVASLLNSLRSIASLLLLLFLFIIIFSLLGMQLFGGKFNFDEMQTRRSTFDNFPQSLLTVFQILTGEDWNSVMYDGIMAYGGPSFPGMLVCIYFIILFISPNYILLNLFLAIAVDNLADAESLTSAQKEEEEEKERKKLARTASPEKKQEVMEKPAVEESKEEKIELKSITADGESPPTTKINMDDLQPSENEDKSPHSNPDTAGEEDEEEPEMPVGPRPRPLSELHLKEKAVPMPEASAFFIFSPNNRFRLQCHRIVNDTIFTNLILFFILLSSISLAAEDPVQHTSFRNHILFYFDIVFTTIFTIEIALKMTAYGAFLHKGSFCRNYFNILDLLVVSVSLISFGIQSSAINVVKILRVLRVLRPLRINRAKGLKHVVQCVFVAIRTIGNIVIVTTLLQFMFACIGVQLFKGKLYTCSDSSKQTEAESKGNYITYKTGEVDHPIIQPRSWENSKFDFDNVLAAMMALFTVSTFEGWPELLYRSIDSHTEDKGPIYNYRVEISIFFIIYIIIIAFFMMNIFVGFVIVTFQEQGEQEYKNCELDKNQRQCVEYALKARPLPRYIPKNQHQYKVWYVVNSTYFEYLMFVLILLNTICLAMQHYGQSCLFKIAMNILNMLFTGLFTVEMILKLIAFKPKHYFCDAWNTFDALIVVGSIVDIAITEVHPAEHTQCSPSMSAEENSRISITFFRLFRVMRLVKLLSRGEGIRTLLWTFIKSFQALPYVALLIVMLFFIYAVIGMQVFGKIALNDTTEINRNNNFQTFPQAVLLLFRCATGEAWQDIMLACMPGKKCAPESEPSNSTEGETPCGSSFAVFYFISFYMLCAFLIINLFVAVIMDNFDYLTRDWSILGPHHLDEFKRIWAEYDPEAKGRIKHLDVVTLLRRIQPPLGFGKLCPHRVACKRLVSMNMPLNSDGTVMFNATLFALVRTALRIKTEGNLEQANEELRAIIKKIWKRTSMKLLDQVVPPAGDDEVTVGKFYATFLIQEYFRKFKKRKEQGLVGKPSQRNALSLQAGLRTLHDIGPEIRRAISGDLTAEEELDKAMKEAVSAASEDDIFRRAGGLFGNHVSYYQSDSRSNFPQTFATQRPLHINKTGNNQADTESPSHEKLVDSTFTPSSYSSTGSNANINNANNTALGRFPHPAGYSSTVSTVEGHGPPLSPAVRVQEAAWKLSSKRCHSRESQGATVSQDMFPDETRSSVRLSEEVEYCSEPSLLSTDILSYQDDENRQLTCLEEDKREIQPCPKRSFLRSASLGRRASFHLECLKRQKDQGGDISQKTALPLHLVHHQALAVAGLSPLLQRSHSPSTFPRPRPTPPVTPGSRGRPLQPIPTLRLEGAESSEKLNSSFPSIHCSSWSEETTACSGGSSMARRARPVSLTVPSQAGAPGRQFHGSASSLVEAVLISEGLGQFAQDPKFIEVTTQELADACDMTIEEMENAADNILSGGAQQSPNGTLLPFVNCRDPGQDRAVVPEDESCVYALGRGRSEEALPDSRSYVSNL
Format: functional
parameterMeasured: AC50

> print(dat)
                                   molecule  parametermeasured  observedmeasurement
1  CN1C(=O)C(O)N=C(c2ccccc2)c2cc(Cl)ccc21 (stereo not given)               AC50              > 10 µM
2  Cc1ccc(-c2cc(C(F)(F)F)nn2-c2ccc(S(N)(=O)=O)cc2)cc1               AC50              > 10 µM

Can you share its AC50? I mean this molecule: `CN(C)/N=N/c1[nH]cnc1C(N)=O`
> 10 µM

Can you share its AC50? I mean this molecule: `O=C1Nc2ccc(Cl)cc2[C@@](C#CC2CC2)(C(F)(F)F)O1`
18.8 µM

Can you share its AC50? I mean this molecule: `C[C@]1(O)CC[C@H]2[C@@H]3CCC4=CC(=O)CC[C@]4(C)[C@@]3(F)[C@@H](O)C[C@@]21C`
> 10 µM

Can you share its AC50? I mean this molecule: `CN1C(=O)OC(C)(C)C1=O`
> 10 µM

Can you share its AC50? I mean this molecule: CCCN(CCC)C(=O)C(CCC(=O)O)NC(=O)c1ccccc1 (stereo not given) [PROGLUMIDE]
> 10 µM

Can you share its AC50? I mean this molecule: `O=C(O)CCCCCCCC(=O)O`
> 10 µM

Can you share its AC50? I mean this molecule: Cc1cccc(C(C)c2cnc[nH]2)c1C (stereo not given)
> 30 µM

Can you share its AC50? I mean this molecule: `COc1ccccc1N1CCN(CCCNc2cc(=O)n(C)c(=O)n2C)CC1`
> 30 µM

###

Molecular target: Thromboxane A2 receptor (Homo sapiens, UniProt P21731); also: assay procedure not described here
Sequence (P21731 whole entry): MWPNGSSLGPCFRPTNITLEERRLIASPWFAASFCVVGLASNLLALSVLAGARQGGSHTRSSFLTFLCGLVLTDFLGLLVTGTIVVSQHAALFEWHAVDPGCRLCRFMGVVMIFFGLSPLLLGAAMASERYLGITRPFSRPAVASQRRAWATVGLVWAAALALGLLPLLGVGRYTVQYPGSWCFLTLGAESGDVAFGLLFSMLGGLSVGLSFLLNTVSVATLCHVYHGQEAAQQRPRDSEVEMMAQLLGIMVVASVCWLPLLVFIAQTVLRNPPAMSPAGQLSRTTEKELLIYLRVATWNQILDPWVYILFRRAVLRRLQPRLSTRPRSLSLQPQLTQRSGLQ
Assay type: functional, cell-based
parameterMeasured: AC50

// below: answered compounds
> print(dat)
                                   compound  parametermeasured  observedmeasurement
1  OC(CCN1CCCCC1)(c1ccccc1)c1ccccc1 [PRIDINOL]               AC50              > 30 µM
2  C=CCN1C[C@H](C(=O)N(CCCN(C)C)C(=O)NCC)C[C@@H]2c3cccc4[nH]cc(c34)C[C@H]21 [CABERGOLINE]               AC50              > 30 µM
3  Cc1cc(C#N)cc(C)c1Oc1nc(Nc2ccc(C#N)cc2)nc(N)c1Br [ETRAVIRINE]               AC50              > 10 µM

Can you share its AC50? I mean this compound: O=c1[nH]c(=O)n([C@H]2C[C@H](O)[C@@H](CO)O2)cc1I [IDOXURIDINE]
> 30 µM

###

Quick note: these are AC50 numbers for system: Muscarinic acetylcholine receptor M4 (Homo sapiens, UniProt P08173); also: assay procedure not described here
Sequence (P08173 whole entry): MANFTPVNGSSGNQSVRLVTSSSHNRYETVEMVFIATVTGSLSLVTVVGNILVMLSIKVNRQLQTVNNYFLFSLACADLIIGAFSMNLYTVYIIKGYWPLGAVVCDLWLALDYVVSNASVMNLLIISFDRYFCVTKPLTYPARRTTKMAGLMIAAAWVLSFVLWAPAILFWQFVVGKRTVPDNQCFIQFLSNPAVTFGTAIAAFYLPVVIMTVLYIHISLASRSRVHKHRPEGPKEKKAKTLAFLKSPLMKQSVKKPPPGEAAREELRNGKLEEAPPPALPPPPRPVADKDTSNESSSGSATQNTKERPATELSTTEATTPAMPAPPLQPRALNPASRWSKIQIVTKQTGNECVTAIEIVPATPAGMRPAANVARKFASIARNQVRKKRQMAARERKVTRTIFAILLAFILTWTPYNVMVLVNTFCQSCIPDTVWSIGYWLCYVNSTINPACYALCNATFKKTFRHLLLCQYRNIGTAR

// below: answered molecules
> print(dat)
                                   molecule  observedmeasurement
1  CCOc1ccccc1OCC1CNCCO1 (stereo not drawn)              > 10 µM
2  CS(=O)(=O)c1ccc(C2=C(c3ccccc3)C(=O)OC2)cc1              > 10 µM

Shifting focus to the molecule that follows.
What is its AC50 for Muscarinic acetylcholine receptor M4 (Homo sapiens, UniProt P08173)? Entry: `Cc1c(C(=O)NN2CCCCC2)nn(-c2ccc(Cl)cc2Cl)c1-c1ccc(Cl)cc1`
> 10 µM

###

Target: Adenosine receptor A3 (Homo sapiens); also: assay procedure not described here
Sequence (P0DMS8 whole entry): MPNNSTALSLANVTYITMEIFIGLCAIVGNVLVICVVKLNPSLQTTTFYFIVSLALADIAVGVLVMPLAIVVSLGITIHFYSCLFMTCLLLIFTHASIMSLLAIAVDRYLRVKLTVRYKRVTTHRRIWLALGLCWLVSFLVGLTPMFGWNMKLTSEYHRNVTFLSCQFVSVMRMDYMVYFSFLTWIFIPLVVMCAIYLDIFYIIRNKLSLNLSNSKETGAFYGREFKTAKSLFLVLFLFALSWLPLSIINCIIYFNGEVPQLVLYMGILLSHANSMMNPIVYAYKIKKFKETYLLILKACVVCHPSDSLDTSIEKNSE
AC50 reference

// below: answered compounds
compound	targetSystem	AC50
C=CCc1ccccc1OCC(O)CNC(C)C (stereo not drawn) [ALPRENOLOL]	Adenosine receptor A3 (Homo sapiens)	> 30 µM
CCC(CC)(CC(=O)Nc1cccc(/C=C/c2nc(C3CCC3)cs2)c1)C(=O)O	Adenosine receptor A3 (Homo sapiens)	13.9 µM
C#C[C@]1(O)CC[C@H]2[C@@H]3[C@H](C)CC4=C(CCC(=O)C4)[C@H]3CC[C@@]21C [TIBOLONE]	Adenosine receptor A3 (Homo sapiens)	8.1 µM
Nc1nc(/C(=C/CC(=O)O)C(=O)N[C@@H]2C(=O)N3C(C(=O)O)=CCS[C@H]23)cs1 [CEFTIBUTEN]	Adenosine receptor A3 (Homo sapiens)	> 30 µM
CC(=O)O[C@H]1C[C@@H]2CC[C@@H]3[C@H](CC[C@@]4(C)[C@H]3C[C@H]([N+]3(C)CCCCC3)[C@@H]4OC(C)=O)[C@@]2(C)C[C@@H]1N1CCCCC1 [VECURONIUM]	Adenosine receptor A3 (Homo sapiens)	> 30 µM

Can you share its AC50? I mean this compound: `CC(C)(C)C(=O)Oc1ccc(S(=O)(=O)Nc2ccccc2C(=O)NCC(=O)O)cc1`
> 30 µM

Can you share its AC50? I mean this compound: `CC=CC(=O)N(CC)c1ccccc1C`
> 10 µM

Can you share its AC50? I mean this compound: COc1ccc(CC(C)(C)NC[C@H](O)c2cc(O)cc3c2OCC(=O)N3)cc1 [OLODATEROL]
> 30 µM

###

AC50 reference
Target: Prostaglandin G/H synthase 1 (Homo sapiens)
Sequence (P23219 whole entry): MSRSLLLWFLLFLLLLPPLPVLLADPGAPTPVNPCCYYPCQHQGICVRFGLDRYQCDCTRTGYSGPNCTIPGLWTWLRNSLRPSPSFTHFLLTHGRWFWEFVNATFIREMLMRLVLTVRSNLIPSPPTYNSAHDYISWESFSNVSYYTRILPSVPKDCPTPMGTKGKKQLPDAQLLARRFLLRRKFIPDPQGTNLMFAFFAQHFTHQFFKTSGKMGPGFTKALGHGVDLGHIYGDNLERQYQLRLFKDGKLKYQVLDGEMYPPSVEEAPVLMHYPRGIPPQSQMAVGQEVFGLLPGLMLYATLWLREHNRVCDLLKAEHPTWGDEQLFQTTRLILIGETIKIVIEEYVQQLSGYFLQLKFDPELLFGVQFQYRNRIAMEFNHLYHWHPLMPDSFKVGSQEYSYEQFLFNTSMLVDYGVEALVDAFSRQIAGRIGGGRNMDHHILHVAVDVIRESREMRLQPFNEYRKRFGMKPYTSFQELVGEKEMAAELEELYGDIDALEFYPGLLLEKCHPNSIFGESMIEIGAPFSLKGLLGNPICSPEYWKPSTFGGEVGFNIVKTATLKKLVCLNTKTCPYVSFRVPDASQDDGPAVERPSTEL
Format: functional

// below: answered molecules
molecule	AC50
NC1=NCC2c3ccccc3Cc3ccccc3N12 (stereo not given) [EPINASTINE]	> 30 µM
CC1=C(/C=C/C(C)=C/C=C/C(C)=C/C=C/C=C(C)/C=C/C=C(C)/C=C/C2=C(C)CCCC2(C)C)C(C)(C)CCC1	5.22 µM
Cc1cc(NS(=O)(=O)c2ccc(N)cc2)nc(C)n1	> 30 µM

What is its AC50 for Prostaglandin G/H synthase 1 (Homo sapiens)? Entry: `Nc1nc2nc[nH]c2c(=S)[nH]1`
1.32 µM

What is its AC50 for Prostaglandin G/H synthase 1 (Homo sapiens)? Entry: `C[C@]12CC[C@@H]3c4ccc(O)cc4CC[C@H]3[C@@H]1C[C@@H](O)[C@@H]2O`
> 30 µM

What is its AC50 for Prostaglandin G/H synthase 1 (Homo sapiens)? Entry: `COC(c1ccccc1)(c1ccccc1)[C@H](Oc1nc(C)cc(C)n1)C(=O)O`
> 30 µM

What is its AC50 for Prostaglandin G/H synthase 1 (Homo sapiens)? Entry: `CCc1oc2ccccc2c1C(=O)c1cc(I)c(O)c(I)c1`
29.8 µM

What is its AC50 for Prostaglandin G/H synthase 1 (Homo sapiens)? Entry: `CC[C@H]1[C@@H](O)[C@@H]2[C@H](CC[C@]3(C)[C@@H]([C@H](C)CCC(=O)O)CC[C@@H]23)[C@@]2(C)CC[C@@H](O)C[C@@H]12`
> 30 µM

What is its AC50 for Prostaglandin G/H synthase 1 (Homo sapiens)? Entry: CN(C)CCN1C(=O)c2ccccc2N(C)c2ccccc21 [DIBENZEPIN]
> 30 µM

What is its AC50 for Prostaglandin G/H synthase 1 (Homo sapiens)? Entry: `Cc1cn([C@H]2C[C@H](N=[N+]=[N-])[C@@H](CO)O2)c(=O)[nH]c1=O`
> 30 µM

What is its AC50 for Prostaglandin G/H synthase 1 (Homo sapiens)? Entry: CCN1CCCC1CNC(=O)c1cc(S(N)(=O)=O)ccc1OC (stereo not given) [SULPIRIDE]
15.8 µM

What is its AC50 for Prostaglandin G/H synthase 1 (Homo sapiens)? Entry: `COc1ccc2c(c1)N(C[C@H](C)CN(C)C)c1ccccc1S2`
> 30 µM
